Source of measurements: paper PMC5854716

Could you please report measured viability at 24 h, 31.2 µg/ml for the items listed next?
Test: Cell viability assay (MTT), VERO
Type: cell-based, Cercopithecus aethiops
Conditions: African green monkey (Cercopithecus aethiops), VERO kidney epithelial cells, 31.2 µg/ml
One number for each entry, in %.

Worked set:
// returns reported viability at 24 h, 31.2 µg/ml for input C/C(=N\Nc1nc(-c2ccccc2)cs1)c1ccc(Nc2nc(N)nc(N)n2)cc1 [Compound 4k]
106

Can you check C/C(=N\Nc1nc(-c2ccc(F)cc2)cs1)c1ccc(Nc2nc(N)nc(N)n2)cc1 [Compound 4a] next?
107

Now this one: C/C(=N\Nc1nc(-c2ccc(I)cc2)cs1)c1ccc(Nc2nc(N)nc(N)n2)cc1 [Compound 4e]
113

What about this compound? C/C(=N\Nc1nc(-c2ccc(Br)cc2)cs1)c1ccc(Nc2nc(N)nc(N)n2)cc1 [Compound 4d]
114

Also, C/C(=N\Nc1nc(-c2ccc(Cl)c(Cl)c2)cs1)c1ccc(Nc2nc(N)nc(N)n2)cc1 [Compound 4i] please.
112

Item: C/C(=N\NC(N)=S)c1ccc(Nc2nc(N)nc(N)n2)cc1 [Compound 3]
96.2

Count: 2. Required value per item: viability at 24 h, 31.2 µg/ml.
1. C/C(=N\Nc1nc(-c2ccc([N+](=O)[O-])cc2)cs1)c1ccc(Nc2nc(N)nc(N)n2)cc1 [Compound 4h]
2. C/C(=N\Nc1nc(-c2ccc(Cl)cc2)cs1)c1ccc(Nc2nc(N)nc(N)n2)cc1 [Compound 4b]

[109, 115]

Look up viability at 24 h, 31.2 µg/ml: C/C(=N\Nc1nc(-c2ccc(C)cc2)cs1)c1ccc(Nc2nc(N)nc(N)n2)cc1 [Compound 4c]
102
